Consider the following molecules; for each one, report its inhibition.
Biological target: Nitric oxide synthase 1 (Homo sapiens)
Sequence (P29475 whole entry): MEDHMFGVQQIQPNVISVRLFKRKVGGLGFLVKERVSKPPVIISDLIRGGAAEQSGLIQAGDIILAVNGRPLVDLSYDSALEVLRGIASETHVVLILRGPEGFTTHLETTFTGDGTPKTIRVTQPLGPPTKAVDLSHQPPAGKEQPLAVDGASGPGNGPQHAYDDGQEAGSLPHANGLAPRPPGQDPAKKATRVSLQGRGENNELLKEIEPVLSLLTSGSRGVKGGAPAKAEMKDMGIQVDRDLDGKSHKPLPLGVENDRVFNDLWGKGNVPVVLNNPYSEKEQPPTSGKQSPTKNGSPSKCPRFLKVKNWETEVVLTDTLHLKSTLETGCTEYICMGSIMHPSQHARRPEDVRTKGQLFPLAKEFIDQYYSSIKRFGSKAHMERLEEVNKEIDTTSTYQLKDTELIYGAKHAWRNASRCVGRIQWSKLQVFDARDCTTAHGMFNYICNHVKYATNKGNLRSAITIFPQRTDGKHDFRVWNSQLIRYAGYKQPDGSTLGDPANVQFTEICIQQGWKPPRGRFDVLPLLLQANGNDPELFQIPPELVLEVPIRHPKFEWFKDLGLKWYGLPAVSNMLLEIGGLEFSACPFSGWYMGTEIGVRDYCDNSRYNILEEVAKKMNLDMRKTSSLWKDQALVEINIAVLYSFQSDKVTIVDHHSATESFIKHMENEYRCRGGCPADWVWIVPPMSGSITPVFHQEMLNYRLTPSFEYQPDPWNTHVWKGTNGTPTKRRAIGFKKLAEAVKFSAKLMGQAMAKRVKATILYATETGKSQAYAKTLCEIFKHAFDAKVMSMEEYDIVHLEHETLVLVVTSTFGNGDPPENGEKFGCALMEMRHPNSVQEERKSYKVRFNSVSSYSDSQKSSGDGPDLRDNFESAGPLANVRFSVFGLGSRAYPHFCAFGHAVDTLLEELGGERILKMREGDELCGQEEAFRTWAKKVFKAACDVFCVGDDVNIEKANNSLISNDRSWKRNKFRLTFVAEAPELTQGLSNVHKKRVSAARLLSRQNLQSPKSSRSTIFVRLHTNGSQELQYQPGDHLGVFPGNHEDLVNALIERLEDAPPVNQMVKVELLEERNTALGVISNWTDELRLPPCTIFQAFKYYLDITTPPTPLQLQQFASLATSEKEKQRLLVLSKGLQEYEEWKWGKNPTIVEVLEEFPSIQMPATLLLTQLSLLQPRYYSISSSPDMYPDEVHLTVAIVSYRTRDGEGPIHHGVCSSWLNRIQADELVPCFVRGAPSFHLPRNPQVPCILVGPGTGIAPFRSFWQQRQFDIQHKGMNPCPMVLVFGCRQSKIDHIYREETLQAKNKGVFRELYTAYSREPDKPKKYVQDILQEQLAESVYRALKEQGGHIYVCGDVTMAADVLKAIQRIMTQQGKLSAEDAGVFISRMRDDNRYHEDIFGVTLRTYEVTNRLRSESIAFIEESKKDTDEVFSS
Test: Inhibition of human recombinant nNOS expressed in Escherichia coli assessed as reduction in L-[3H]-citrulline level using L-[3H]-arginine as substrate at 1 mM incubated for 30 mins by liquid scintillation method relative to control
Answers are plain numbers, in %.

Examples from the recorded data:
> print(dat)
                                   molecule                      measurement.target  readout.name   val
1  N=C(NCCC(O)c1ccccc1N)c1ccc(Cl)cc1 (stereo not given)  Nitric oxide synthase 1 (Homo sapiens)    inhibition  31.6
2  N=C(NCCC(O)c1ccccc1N)c1ccccc1 (stereo not given)  Nitric oxide synthase 1 (Homo sapiens)    inhibition  23.2
3            N=C(NCCC(=O)c1ccccc1N)c1ccccc1  Nitric oxide synthase 1 (Homo sapiens)    inhibition  66.5

// each molecule listed below needs its inhibition
1. CC(=N)NCCC(=O)c1ccccc1N
2. CC(=N)NCCC(O)c1cc(Cl)ccc1N (stereo not given)

88.8
66.1
